Measured logP, listed per entry for reference.
ENDPOINT: logP

> print(dat)
                                   compound  recorded.measurement
1                      O=[N+]([O-])c1ccccc1                  1.85
2                    ClC(Cl)(Cl)C(Cl)(Cl)Cl                  4.14
3      Cc1cc(C)c2c(c1)C(c1ccccc1)=NCC(=O)N2                  2.94
4                                   CC(C)Cl                   1.9
5  C[C@@H]1C[C@H]2[C@@H]3CCC4=CC(=O)C=C[C@]4(C)[C@@]3(F)[C@@H](O)C[C@]2(C)[C@@]1(O)C(=O)CO                  1.83
6  CCC(C)n1c(=O)[nH]c(C)c(Br)c1=O (stereo unspecified)                  2.11

Hello, the source for this data is the OPERA property sets (Mansouri et al. 2018), in case you need it.
